- EXPERIMENTAL SYSTEM: recombinant human MetAP-2 (Homo sapiens, UniProt P50579)
- Construct: His tag (N); TEV cleavage site (N)
- Sequence (P50579 whole entry): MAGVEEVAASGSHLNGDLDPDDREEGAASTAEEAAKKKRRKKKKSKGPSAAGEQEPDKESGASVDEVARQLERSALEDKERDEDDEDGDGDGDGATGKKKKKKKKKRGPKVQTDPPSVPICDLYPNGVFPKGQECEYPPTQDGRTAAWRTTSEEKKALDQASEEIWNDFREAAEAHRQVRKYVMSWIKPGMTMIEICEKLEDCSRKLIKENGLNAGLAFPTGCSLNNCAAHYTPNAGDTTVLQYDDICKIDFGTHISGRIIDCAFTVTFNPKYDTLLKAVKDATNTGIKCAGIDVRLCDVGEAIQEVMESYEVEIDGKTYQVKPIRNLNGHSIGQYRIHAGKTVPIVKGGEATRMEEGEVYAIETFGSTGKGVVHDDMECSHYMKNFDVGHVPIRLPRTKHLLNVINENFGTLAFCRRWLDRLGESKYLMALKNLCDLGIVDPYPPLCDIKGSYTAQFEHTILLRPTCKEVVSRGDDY
- ASSAY PROCEDURE: Enzymatic activity assay of Methionine aminopeptidase 2 (enzyme coupled assay, Met-Ala-Ser substrate)
- RECORDED CONDITIONS: recombinant human MetAP-2 (His-Tev-MetAP-2), absorbance at 450 nm, kinetic mode, read-out: MeAP2 IC50
pIC50: −log10 of the molar value.
QUANTITY NAME: pIC50

Use these answered entries as a reference point.
| COMPOUND | pIC50 |
| --- | --- |
| O=C(NCc1cc(F)cc(Cl)c1)[C@@]1(O)CCN(c2ccc3c(c2)C2(CC2)S(=O)(=O)N3)C1=O | > 6.00 |
| O=C(NCc1cc(F)cc(F)c1)[C@]1(O)CCN(c2ccc(P(=O)(C3CC3)C3CC3)cc2)C1=O [Compound 10a] | 5.00 to 6.00 |
| O=C(NCc1cc(F)cc(Cl)c1)[C@@]1(O)CCN(c2ccc(P(=O)(C3CCC3)C3CCC3)cc2)C1=O | > 6.00 |
| NC(=O)c1cc2cc(N3CCC(O)(C(=O)NCc4cc(F)cc(F)c4)C3=O)sc2[nH]1 (stereo not shown) | > 6.00 |
| CP(C)(=O)c1ccc(N2CC[C@@](O)(C(=O)NCc3cc(F)cc(F)c3)C2=O)cc1 | 5.00 to 6.00 |

QUERY: Would you kindly share the measured pIC50 for O=C1Nc2ccc(N3CC[C@@](O)(C(=O)NCc4cc(F)cc(Cl)c4)C3=O)cc2C12CC2 [Compound 13a] ?
RESULT: 5.00 to 6.00

QUERY: Return reported pIC50; argument: "CP(C)(=O)c1ccc(N2CC[C@@](O)(C(=O)NCc3cc(F)cc(Cl)c3)C2=O)cc1"
RESULT: > 6.00
